- Tested on: Huh-Luc-Neo Cells
- METHOD_DESCRIPTION: CellTiter-Glo Cell Viability Assay
- Format: cell-based, human
- EXPERIMENTAL_SETUP: 48 h, read-out: Cytotoxicity*
ENDPOINT: IC50

Q: Huh-Luc-Neo Cells / IC50 / Cn1c(=O)cc(Sc2ccccc2F)c2ccccc21 [compound 005] : value?
A: 10 to 100 µM

Q: Given the entry Cn1c(=O)cc(Sc2ccccc2F)c2ccccc21 [compound 008] , what IC50 was observed with Huh-Luc-Neo Cells?
A: > 100 µM

---

- METHOD_DESCRIPTION: CellTiter-Glo Cell Viability Assay
- Type: cell-based, human
- EXPERIMENTAL_SETUP: human, Huh-Luc-Neo cells, read-out: Cytotoxicity*
Field: IC50 at 48 h. Provide a value for each of the compounds that follow.

Q: IC50 at 48 h for "Cc1ccc2c(c1)c(Sc1ccc(F)cc1)cc(=O)n2C" ?
A: 10 to 100 µM

Q: Looking for the measured IC50 at 48 h of "Cc1ccc2c(c1)c(Sc1ccc(Br)cc1)cc(=O)n2C" , can you help?
A: 10 to 100 µM

Q: If you can, please state the reported IC50 at 48 h value of "Cn1c(=O)cc(Sc2ccc(NC(=O)[C@@H](NC(=O)OC(C)(C)C)C3CCCCC3)cc2)c2ccccc21" .
A: > 100 µM

Q: GET /values?readout=IC50 at 48 h&item= "Cn1c(=O)cc(Sc2ccc(NC(=O)[C@H](Cc3ccccc3)NC(=O)OC(C)(C)C)cc2)c2ccccc21"
A: > 100 µM
